Listed here are compounds together with their documented Ki.
# Target Or Test System: Cathepsin S (Homo sapiens)
# Sequence (P25774 115-331, species assumed): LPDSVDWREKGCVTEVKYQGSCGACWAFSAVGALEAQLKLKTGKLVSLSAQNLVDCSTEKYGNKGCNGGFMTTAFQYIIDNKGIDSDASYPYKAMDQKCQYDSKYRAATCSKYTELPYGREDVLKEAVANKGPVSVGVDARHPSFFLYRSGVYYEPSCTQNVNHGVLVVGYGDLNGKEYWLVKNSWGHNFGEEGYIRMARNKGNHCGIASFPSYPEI
# Protocol Summary: Cathepsin S inhibition, fluorogenic peptide substrate kinetic assay
# Format: biochemical
# Condition Notes: Table II; Cathepsin S inhibition constant, pH5.5; read-out: Ki Cat. S

Use these answered entries as a reference point.
C[C@@H](CNc1cccc(F)c1)NC(=O)[C@H](CC1CCCCC1)NC(=O)c1ccc(-c2cccc(F)c2)o1 : < 100 nM
O=C(NCCN1CCc2cc(F)ccc21)[C@H](CC1CCCCC1)NS(=O)(=O)c1ccc(-c2cnco2)cc1 : < 100 nM
O=C(NCCN1CCc2cc(F)ccc21)[C@H](CC1CCCCC1)NS(=O)(=O)c1cccc2ccccc12 : < 1000 nM

Given the compound Cc1cc(NC[C@H](C)NC(=O)[C@H](CC2CCCCC2)NC(=O)c2ccc(-c3cccc(F)c3)o2)sn1 , what is its reported Ki? < 1000 nM

Given the compound COc1cccc(C(=O)N[C@@H](CC2CCCCC2)C(=O)N[C@@H](CC(=O)OCc2ccccc2)CN2CCc3cc(F)ccc32)c1 , what is its reported Ki? < 100 nM

Given the compound C[C@@H](CNc1ccc(OC(F)(F)F)cc1)NC(=O)[C@H](CC1CCCCC1)NC(=O)c1ccc(-c2cccc(F)c2)o1 , what is its reported Ki? < 100 nM

Given the compound Cc1cccc(C(=O)N[C@@H](CC(C)C)C(=O)N[C@@H](CCNC(N)=O)CN2CCc3cc(F)ccc32)c1 , what is its reported Ki? < 1000 nM

Given the compound C[C@@H](CNc1cccc(S(C)(=O)=O)c1)NC(=O)[C@H](CC1CCCCC1)NC(=O)c1ccc(-c2cccc(F)c2)o1 , what is its reported Ki? < 100 nM

Given the compound C[C@@H](CNc1ccc(OC(F)F)cc1)NC(=O)[C@H](CC1CCCCC1)NC(=O)c1ccc(-c2cccc(F)c2)o1 , what is its reported Ki? < 100 nM

Given the compound C[C@@H](CN1CC(C)(C)c2cc(F)ccc21)NC(=O)[C@H](CC1CCCCC1)NC(=O)C1CCOCC1 , what is its reported Ki? < 100 nM

Value source: patent US20040248887A1
